Target: human FSH receptor (Homo sapiens)
Sequence (P23945 18-695): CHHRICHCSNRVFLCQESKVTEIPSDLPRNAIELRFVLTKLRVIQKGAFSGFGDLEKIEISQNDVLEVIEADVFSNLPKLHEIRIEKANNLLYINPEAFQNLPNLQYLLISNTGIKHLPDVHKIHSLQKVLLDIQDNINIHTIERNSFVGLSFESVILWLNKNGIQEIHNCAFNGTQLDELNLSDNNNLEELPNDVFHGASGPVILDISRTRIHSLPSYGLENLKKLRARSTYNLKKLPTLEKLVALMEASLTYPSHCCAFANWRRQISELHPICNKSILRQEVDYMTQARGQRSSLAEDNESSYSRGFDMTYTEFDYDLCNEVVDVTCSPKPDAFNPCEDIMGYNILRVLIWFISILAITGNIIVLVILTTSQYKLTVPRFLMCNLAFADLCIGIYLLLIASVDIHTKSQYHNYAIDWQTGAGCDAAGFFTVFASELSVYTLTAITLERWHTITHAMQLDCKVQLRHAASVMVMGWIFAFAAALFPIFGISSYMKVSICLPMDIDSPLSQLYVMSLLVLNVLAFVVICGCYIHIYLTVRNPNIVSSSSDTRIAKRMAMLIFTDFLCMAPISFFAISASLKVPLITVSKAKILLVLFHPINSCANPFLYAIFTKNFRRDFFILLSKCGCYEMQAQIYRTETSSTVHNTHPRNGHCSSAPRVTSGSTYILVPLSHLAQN
Experiment: CHO-FSH in vitro bioactivity (CRE/luciferase reporter gene)
Settings: CHO cells stably transfected with the human FSH receptor and CRE/firefly luciferase reporter; luminescence; read-out: EC50 (concentration of test compound causing half-maximal (50%) stimulation)
Quantity kind: EC50

INPUT: Determine its reported EC50: CCCC1CC(=O)C2=C(C1)NC(C)=C(C#N)C2c1cc(Br)c(OCc2ccc(C(=O)NCc3cccs3)cc2)c(OCC)c1 (centres unmarked) [Example 29]
OUTPUT: < 1 nM

INPUT: Determine its reported EC50: CCCC1CC(=O)C2=C(C1)NC(C)=C(C#N)C2c1cc(Br)c(OCc2cccc(C(=O)NCC(=O)OC)c2)c(OCC)c1 (centres unmarked) [Example 24]
OUTPUT: < 1 nM
